- Condition Details: fish
Recorded Endpoint: log10 BCF
Give bare numbers.

Here is how some molecules turned out for log10 BCF.
| Molecule | Recorded Endpoint | Result |
| --- | --- | --- |
| CON(C)C(=O)Nc1ccc(Cl)cc1 | log10 BCF | 1.15 |
| CC(C)[N+](=O)[O-] | log10 BCF | 0.92 |

# return log10 BCF for each item in the list
1. C=Cc1cccc(C)c1
2. COP(=S)(OC)Oc1ccc([N+](=O)[O-])c(Cl)c1
3. C=CCOP(=O)(OCC=C)OCC=C
4. CNC(=O)CSP(=S)(OC)OC
5. Cc1ccc(O)c([N+](=O)[O-])c1
6. CCc1ccccc1[N+](=O)[O-]
7. c1ccc(Nc2cccc3ccccc23)cc1

Reply:
1: 1.55; 2: 1.55; 3: 0.08; 4: 0.2; 5: 0.95; 6: 1.11; 7: 3.23
